system: RXF 393 renal; assay: NCI tumour cell line growth inhibition, 48 h
Experimental Readout: TGI

Ask | Which TGI value belongs to COC(=O)C(=O)C1(CCC(C)=O)c2ccccc2-c2c(C)ccc(C)c21 (configuration not stated) ?
Reply | 76.1 µM

Ask | Consider next the compound "O=C(N/N=C(/c1ccccc1)C(F)(F)F)c1ccncc1" in the same way.
Reply | > 100 µM

Ask | Consider next the compound "CC(C)c1cc(-c2n[nH]c(=O)n2-c2ccc3c(ccn3C)c2)c(O)cc1O" in the same way.
Reply | 21.5 µM

Ask | Consider next the compound "CCc1nccc2c1nc(-c1nonc1N)n2CC" in the same way.
Reply | > 25 µM

Ask | Consider next the compound "[N-]=[N+]=Nc1c(C=O)c(=O)n2c3c(cccc13)CCC2" in the same way.
Reply | 3.76 µM

Ask | Consider next the compound "C=CCOc1ccc(/C(N=Nc2ccc([N+](=O)[O-])cc2)=N/NC(=O)c2ccccc2)cc1OC" in the same way.
Reply | > 100 µM

Ask | Consider next the compound "CCN(CC)CCCNc1nc(=O)[nH]c(C)c1C(=O)Nc1cccc2cc3ccccc3cc12" in the same way.
Reply | > 100 µM

Ask | Consider next the compound "NNC(=O)/C(=C/c1ccc(Cl)cc1Cl)NC(=O)c1ccccc1" in the same way.
Reply | > 100 µM

Ask | Consider next the compound N#CC12C(=O)N3C(=NC(c4ccccc4)NC3c3ccccc3)C1(C#N)C(c1ccccc1)NC1=C2CCC1 (configuration not stated) in the same way.
Reply | > 100 µM

Ask | Consider next the compound "Nc1ccccc1C#C/C=C\C#Cc1cccs1" in the same way.
Reply | > 83.9 µM

Ask | Consider next the compound "C=CCOc1cccc(/C=C2\SC(=Nc3ccc(O)cc3)NC2=O)c1" in the same way.
Reply | 3.77 µM

Ask | Consider next the compound "CCCc1[nH]c(SCCCCCCCCSc2nc(-c3ccc(F)cc3)c(CCC)[nH]2)nc1-c1ccc(F)cc1" in the same way.
Reply | > 100 µM

Ask | Consider next the compound CC(=O)N1C(c2[nH]c3ccccc3c2-c2ccccc2)CCN1c1ccccc1 (configuration not stated) in the same way.
Reply | > 10 µM

Ask | Consider next the compound CCCC(=O)OC1C(C(O)CO)OC2OC(C)(C)OC21 (configuration not stated) in the same way.
Reply | > 100 µM

Ask | Consider next the compound "COc1ccc2nc(N/N=C/C(C)=N/Nc3cc(C)c4cc(OC)ccc4n3)cc(C)c2c1" in the same way.
Reply | > 83.1 µM

Ask | Consider next the compound "O=c1/c(=C/c2ccccc2F)sc2nc3ccccc3n12" in the same way.
Reply | > 100 µM

Ask | Consider next the compound "CCOC(=O)CSc1nc(N)c2c(-c3ccc(OC)c(OC)c3)c3c(nc2n1)CCCC3" in the same way.
Reply | > 100 µM

Ask | Consider next the compound "O=S(=O)(O)c1ccc(O)c2ncc(Cl)cc12" in the same way.
Reply | > 100 µM

Ask | Consider next the compound O=C(CCC(NC(=O)OCc1ccccc1)C(=O)OCc1ccccc1)Nc1ccc(OCc2ccccc2)cc1 (configuration not stated) in the same way.
Reply | > 31.6 µM

Ask | Consider next the compound "COc1ccc2nc(-n3c(/C=C/c4ccccc4O)nc4ccccc4c3=O)sc2c1" in the same way.
Reply | > 100 µM

Ask | Consider next the compound "Cn1c(=S)[nH]c2sc3c(c2c1=O)CCSC3" in the same way.
Reply | 14.7 µM

Ask | Consider next the compound "O=c1cc(NNc2ccccc2)[nH]c(=S)[nH]1" in the same way.
Reply | > 100 µM

---

system: SK-MEL-5 melanoma; assay: NCI tumour cell line growth inhibition, 48 h
Experimental Readout: GI50

Ask | Which GI50 value belongs to "CN(C)CCNc1c2c(c(NCCN(C)C)c3[nH]ccc13)C(=O)c1ccccc1C2=O" ?
Reply | 1810 nM

Ask | Consider next the compound "COc1ccc(-c2nn3c(-c4cc(F)c(Cl)cc4Cl)nnc3s2)cc1" in the same way.
Reply | 17600 nM

Ask | Consider next the compound "N#Cc1cccc(CSc2ncnc3nc[nH]c23)c1" in the same way.
Reply | 89500 nM

Ask | Consider next the compound "COc1ccc(-c2nc3sc4c(c3c(=O)[nH]2)CCCCCC4)cc1" in the same way.
Reply | 2520 nM

Ask | Consider next the compound "Cc1ccccc1[P+](Cc1ccccc1)(c1ccccc1)c1ccccc1" in the same way.
Reply | 863 nM

Ask | Consider next the compound Nc1nc2c(c3ncncc13)C(c1cccc(C(F)(F)F)c1)Cc1ncncc1-2 (centres undefined) in the same way.
Reply | 4880 nM

Ask | Consider next the compound "COc1cccc2c1c(C(=O)C(=O)Nc1cc(C)no1)cn2Cc1ccc(F)cc1" in the same way.
Reply | 3080 nM

Ask | Consider next the compound "Oc1cccc2ccc(N/N=C/c3cc(CN4CCCCC4)c(O)c4ncccc34)nc12" in the same way.
Reply | 23.9 nM

Ask | Consider next the compound "Cc1ccc(-c2cn3ccnc3c(-c3ccc(Cl)cc3)n2)cc1" in the same way.
Reply | 62.7 nM

Ask | Consider next the compound CC1(C)CC(=O)c2c(C(F)(F)F)nn(-c3ccc(C(N)=O)c(NC4CCC(OC(=O)CN)CC4)c3)c2C1 (centres undefined) in the same way.
Reply | 74.2 nM

Ask | Consider next the compound "O=C(CCCCCCC(=O)Nc1ccc(N(CCCl)CCCl)cc1)NO" in the same way.
Reply | 1330 nM

Ask | Consider next the compound CC[C@@H](C(=O)O)C1CC[C@H](C)C([C@@H](C)[C@H](O)[C@H](C)C(=O)[C@H](CC)C2O[C@]3(C=C[C@@H](O)[C@]4(CC[C@@](C)(C5CC[C@](O)(CC)[C@H](C)O5)O4)O3)[C@H](C)C[C@@H]2C)O1 (some centres undefined) in the same way.
Reply | 180 nM

Ask | Consider next the compound "C1C[OH+]CC[OH+]CCNCC[OH+]CC[OH+]CCN1.N.[Cl-].[Pt+4]" in the same way.
Reply | 10300 nM

Ask | Consider next the compound "CN1CCC(n2cnc(-c3ccc(F)cc3)c2-c2ccnc(NCCO)n2)CC1" in the same way.
Reply | 17200 nM

Ask | Consider next the compound CC1SC(c2ccccc2)N(CCc2cccs2)C1=O (centres undefined) in the same way.
Reply | 1670 nM

Ask | Consider next the compound "CC#C[C@]1(O)CC[C@H]2[C@@H]3CCC4=CC(=O)CCC4=C3[C@@H](c3ccc4c(c3)OCO4)C[C@@]21C" in the same way.
Reply | 66100 nM

Ask | Consider next the compound "C=CCC[CH2][Sn]([c]1ccccc1)([c]1ccccc1)[c]1ccccc1" in the same way.
Reply | 1650 nM

Ask | Consider next the compound CCCC(C)c1cc(Cc2cc(Cl)cc(Cl)c2O)c(O)c(Cc2cc(Cl)cc(Cl)c2O)c1 (centres undefined) in the same way.
Reply | 428 nM

Ask | Consider next the compound "COc1ccc(-c2csc(N(C(=O)N3CCN(c4cc5c(cc4F)c(=O)c(C(=O)O)cn5C4CC4)CC3)c3ccccc3)n2)cc1" in the same way.
Reply | 2860 nM

---

test system: UACC-257 melanoma; assay: NCI tumour cell line growth inhibition, 48 h
Experimental Readout: GI50

Ask | Which GI50 value belongs to "O=C1c2cccnc2C(=O)c2nc3cc(N4CCN(C5CC5)CC4)ccc3nc21" ?
Reply | 0.479 µM

Ask | Consider next the molecule "CCOC(=O)c1cc(NS(=O)(=O)c2ccccc2)cc(C(=O)OCC)c1" in the same way.
Reply | > 100 µM

Ask | Consider next the molecule "C=CCOc1cccc(/C=C2\SC(=Nc3ccc(O)cc3)NC2=O)c1" in the same way.
Reply | 9.11 µM

Ask | Consider next the molecule "Cc1cc(N(CCCl)CCCl)ccc1C=Nc1ccc(-c2csc(Cc3ccccc3)n2)cc1" in the same way.
Reply | 3.36 µM

---

Assign TGI to each entry below.
system: KM20L2 colon; test: NCI tumour cell line growth inhibition, 48 h

Ask | Which TGI value belongs to Cc1ccc(NC(=O)C(=O)C(C#N)c2ccccc2C)cc1C (stereo not drawn) ?
Reply | > 100 µM

Ask | Consider next the compound O=C(NCCCCCCNC(=O)n1cc(F)c(=O)[nH]c1=O)NCCCOCCOCCOCCOCCOCCOCCOCCOCCOCCOCCOCCOCCOCCOCCOCCOCCOCCOCCOCCOCCOCCCNC(=O)C(O)C(O)C(O)C(O)CO (stereo not drawn) in the same way.
Reply | > 100 µM

Ask | Consider next the compound "CCOc1ccc(NC(=O)C(=O)CC(=O)C2=C(C)Nc3ccccc3S2)cc1" in the same way.
Reply | > 50 µM

Ask | Consider next the compound COc1ccc2nc(-c3cccs3)cc(C(O)CN3CCSCC3)c2c1 (stereo not drawn) in the same way.
Reply | 45.5 µM

Ask | Consider next the compound COc1cc(OC)c2c(c1)C(=O)C(CC(C)O)=CC2=O (stereo not drawn) in the same way.
Reply | 31.8 µM

Ask | Consider next the compound "CCOC(=O)c1nc2ccc(Cl)cc2c2c1Cc1ccccc1-2" in the same way.
Reply | > 100 µM

Ask | Consider next the compound "CCCNC1=C(C(=O)OCC)C(=O)CO1" in the same way.
Reply | > 100 µM

Ask | Consider next the compound CSc1ccc(C2OC(=O)c3ccccc32)c2ccccc12 (stereo not drawn) in the same way.
Reply | > 100 µM
